Test name: yeast display, Sf9 membrane polyspecificity reagent, FACS + sequencing; frameworks hold sequencing errors

Sequence data	polyreactivity (PSR sort gate)
QVQLEESGGGLVQAGGSLRLSWAASGSTFSVNAMGWYRQAPGKERELVARITNGGSTYYADSVKGRFTISRDNAKNTVYLQMNSLKPEDTAVYYCAAKLGSYIYHKQRDWGQGTQVTVSS	low polyreactivity
QVQLVESGGGLFLAGGSLRLSCAAAGSTFVTNDMGWYRQAPGKERELVAAISVGGRTSYADSVKGRFTISRDNAKNTVYLQMNSLKPEDTAVYYCAAQYRYTYWGQGTQVTVSS	low polyreactivity
QVQLVESGGGLVQAVGSLRLSCAPSGSTFPYYAMGWYRQAPGKERELVASIRKRGGGTYYADSVKGRFTISRDNAKNTVYLQMNSLKPEDTAVYYCAVRVYQFRYTGYDYWGQGTQVTVSS	high polyreactivity
QVQLVESGGGLVQAGGSLRLSCAASGSTFKQYAMGWYRQAPGKERELVAAISRSGSRTYYADSVKGRFTISRDNAKNTVYLQMNSLIPEDTAVYYCAAERRSTAGWLYDYWGQGTQVTVSS	high polyreactivity
QVQLVESGGGLVQAGGSLRLSCAASGRTFVRYAMGWYRQAPGKERELVARITSRGTSTYYADSVKGRFTISRDNAKNTVYLQMNSLKPEDTAFYYCNKVRTFRDKSRYDYWGQGTQVTVSS	low polyreactivity
QVQLVESGGGLVQAGGSLRLSCAASGFIFYRYAMGWYRQAPGKEREFVAAITRSAGGTYYADSVKGRFTISRDNEKNTVYLQMNSLKPEDTAVYYCAAVYRSGSRYYLGWYNYWGQGTQVTVSS	high polyreactivity
QVHLVESGGGLVQAGGSLRLSCAASGRILVQNDMGWYRQAPGKERELVAAIRSDGSTSYADSVKGRFTISRDNAKNTVYLQMNSLKPEDTAVYYCAARIDWTGGEYDYWGQGTQVTVSS	low polyreactivity
QVQLVESGGGLVQAGGTLRLSCAASGSTFELNVMGWYRQAPGKERELVAAISSGTSTNYADSVKGRFTISRDNAKYTVYLHLKSVKPVDTAVYYCAADPFTIPTSDFYYWGQVTQVTVSS	low polyreactivity
QVQLVESGGGLVQAGGSLRLSCAASGYTFWAYAMGWYRQAPGKERELVAAITYRGGSTYYADSVKGRFTISRDNAKNTVYLQMNSLKPEDTAVYYCAAEGYYTGYWDLYDYWGQGTQVTVSS	high polyreactivity
QVQLVESGGGLVQAGGSLRLSCAASGRIFGWYAMGWYRQAPGNERELVAAINRGGSTNYADSVKGRFTISRDNAKNTVYLQMNSLKPEDTAVYYCAVRGVHYTAVTNIKYGYGYWGQGTQVTVSS	high polyreactivity
QVQLVESGGGLVQAGGSLRLSCAASGSILYWYAMGWYRQAPGKERELVAAITSSGDSTDYADSVKGRFTISRDNAKKTVYLQMNILKPEDSAVYYCNVQPVYADHFTEFDYCGQGTQVTVSS	low polyreactivity
QVQLVESGGGLVQAGGSLRLSCAASGFTFARYAMGWYRQAPGKERELVAAMTYRGGSTYYADSVKGRFTISRDNAKNTVYLQMNSLKPEDTAVYYCNAGRLWFPGVPEYDYWGQGTQVTVSS	high polyreactivity
QVQLVESGGGLVQAGGSLRLSCAASGSTFPSNAMGWYRQAPGKERELVAALSRGGTTNYADSVKGRFTISRDNAKNTVYLQMNCLKPEDTAVYYCAKVYKLYWYKAYRRDYWGQGTQVTVSS	high polyreactivity
QVQLVESGGGLVQAGGSLRLSCAASGITFVGNAMGWSRQAPGKERELVAAMSSSGASTYYADSVKGRFTISRDYAKNTVYLQMNSLKPEDTAVYYCNAGWGVVIRRYPTYDYWGQGTQVTVSS	high polyreactivity
QVQLVESGGGLVQAGGSLRLSCAASGSTFPRNAMGWYRQAPGKDRELVAAISGSGGTTYYADSVKGRFTISRDNAKNTVYLQMNSLKPEDTAVYYCAARTSWAYPGGNYWGHGTQVTVSS	low polyreactivity
QVQLVESGGGLVQAGGSLRLSCAASGYIFLRNAMGWSRQAPGKERELVAAIRRTGGSTYYADSVKGRFTISRDNAKNTVYLQMNSLKPEVTAVYYCAKRSYTGYEYWGQGTQVTVSS	low polyreactivity
QVQLVESGGGLVQAGGSLRLSCASSGFTFFYYAMGWYRQAPGKERELVAAISASGGSTSYADSVKGRFTISRDNAKNTVYLQMNSLKPEDTAVYYCAARVYSVRSGYYYWGQGTQVTVSS	high polyreactivity
QVQLVESGGGLVQAGVSLRLSCASSGYTYHVYAMGWYRQAPGKERELVAAISTGDDTTFYADSVKVRFTISRDNAKNTVYLQMNSLKPEDTAVYYCAAAYGTPYGGYDYWGQGTQVTVSS	low polyreactivity
QVQLVESGGGLVQAGGSLRLSCAASGRTFVSYAMGWYRQAPGKERELVAAINGNGASTRYADSVKGRFTISRDNAKNTVYLQMNSLKPEDTAVYYCNTGRRFYGYNYWGQGTQVTVSS	high polyreactivity
QVQLVESGGGLLQAGGSLRLSCAASGFIFKYYAMGWYRQAPGKEREFVAGINWSGTSTYYADSVKGRFTISRDNAKNTVYLQMNSLKPEDTAVYYCAATAYRGRTSRYYYWGQGTQVTVSS	high polyreactivity
QVQLVESGGGLVQAGGSLRLSCAASGNTFWFYGMGWYRQAPGKERELVAAITSGGSTDYADSVKWRFTISRDNAKNTVYLQMNSLKPEDTAVYYCAAEPVAYYGSSYGYWGQGTQVTVSS	low polyreactivity
